Each recorded value in this set is attributed to patent EP0093484A2.

Please go through the items and note down their MIC.
- System: S. typhimurium S18
- procedureSummary: Veterinary bacteria, MIC by two fold serial dilution in agar
- condition: Salmonella enterica, TYPHIMURIUM, 18 h

Examples with answers:
CSc1ccc(COC(=O)C=C(C)CC2OCC(CC3OC3C(C)C(C)O)C(O)C2O)cc1 (stereo not drawn) [Example 1, p-Methylthiobenzyl monate A]	> 80 µg/mL
CC(=CC(=O)OC(C)c1ccc(S(C)(=O)=O)cc1)CC1OCC(CC2OC2C(C)C(C)O)C(O)C1O (stereo not drawn) [Example 9, 1-(p-Methylsulfonylphenyl)ethyl monate A]	> 80 µg/mL

// below: MIC requested for another compound
Exercise: Provide one value: measured MIC of CC(=CC(=O)OCc1cccc([S+](C)[O-])c1)CC1OCC(CC2OC2C(C)C(C)O)C(O)C1O (stereo not drawn) [Example 6, m-Methylsulfinylbenzyl monate A]
Solution: > 80 µg/mL

----------
- Tested on: E. coli ESS
- procedureSummary: Human bacteria, MIC by serial dilution in nutrient agar
- Format: cell-based
- condition: Escherichia coli, nutrient agar with 5% chocolated horse blood, 18 hours at 37°C, read-out: MIC
Please go through the items and note down their MIC.
Numbers only, in µg/mL.

Examples with answers:
CC(=CC(=O)OCc1cccc([S+](C)[O-])c1)CC1OCC(CC2OC2C(C)C(C)O)C(O)C1O (stereo not drawn) [Example 6, m-Methylsulfinylbenzyl monate A]	25
CSc1ccc(COC(=O)C=C(C)CC2OCC(CC3OC3C(C)C(C)O)C(O)C2O)cc1 (stereo not drawn) [Example 1, p-Methylthiobenzyl monate A]	1
CC(=CC(=O)OCc1ccc([S+](C)[O-])cc1)CC1OCC(CC2OC2C(C)C(C)O)C(O)C1O (stereo not drawn) [Example 2, p- Methylsulphinylbenzyl monate A]	0.5
CC(=CC(=O)OC(C)c1ccc(S(C)(=O)=O)cc1)CC1OCC(CC2OC2C(C)C(C)O)C(O)C1O (stereo not drawn) [Example 9, 1-(p-Methylsulfonylphenyl)ethyl monate A]	4

Please supply MIC for each of the following items, keeping them in order.
1. CC(=CC(=O)OCc1ccc(S(C)(=O)=O)cc1)CC1OCC(CC2OC2C(C)C(C)O)C(O)C1O (stereo not drawn) [Example 3, p-Methylsulphonylbenzyl monate A]
2. CC(=CC(=O)OCc1cccc(S(C)(=O)=O)c1)CC1OCC(CC2OC2C(C)C(C)O)C(O)C1O (stereo not drawn) [Example 7, m-Methylsulfonylbenzyl monate A]

Solution:
1: 0.5; 2: 2.5

----------
Please go through the items and note down their MIC.
- System: Haemophilus influenzae Q1
- procedureSummary: Human bacteria, MIC by serial dilution in nutrient agar
- Assay type: cell-based
- condition: nutrient agar with 5% chocolated horse blood, 18 hours at 37°C, read-out: MIC
One number for each entry, in µg/mL.

Examples with answers:
CC(=CC(=O)OCc1cccc(S(C)(=O)=O)c1)CC1OCC(CC2OC2C(C)C(C)O)C(O)C1O (stereo not drawn) [Example 7, m-Methylsulfonylbenzyl monate A]	0.5
CC(=CC(=O)OCc1ccc([S+](C)[O-])cc1)CC1OCC(CC2OC2C(C)C(C)O)C(O)C1O (stereo not drawn) [Example 2, p- Methylsulphinylbenzyl monate A]	0.05

// below: MIC requested for another molecule
Exercise: Provide one value: measured MIC of CC(=CC(=O)OCc1ccc(S(C)(=O)=O)cc1)CC1OCC(CC2OC2C(C)C(C)O)C(O)C1O (stereo not drawn) [Example 3, p-Methylsulphonylbenzyl monate A]
Solution: 0.05
